- assayed target: α2B receptor (Homo sapiens, UniProt P18089)
- Construct: host or cells: LM(tk-) cells, line L-NGC-α2B
- Sequence (P18089 1-450): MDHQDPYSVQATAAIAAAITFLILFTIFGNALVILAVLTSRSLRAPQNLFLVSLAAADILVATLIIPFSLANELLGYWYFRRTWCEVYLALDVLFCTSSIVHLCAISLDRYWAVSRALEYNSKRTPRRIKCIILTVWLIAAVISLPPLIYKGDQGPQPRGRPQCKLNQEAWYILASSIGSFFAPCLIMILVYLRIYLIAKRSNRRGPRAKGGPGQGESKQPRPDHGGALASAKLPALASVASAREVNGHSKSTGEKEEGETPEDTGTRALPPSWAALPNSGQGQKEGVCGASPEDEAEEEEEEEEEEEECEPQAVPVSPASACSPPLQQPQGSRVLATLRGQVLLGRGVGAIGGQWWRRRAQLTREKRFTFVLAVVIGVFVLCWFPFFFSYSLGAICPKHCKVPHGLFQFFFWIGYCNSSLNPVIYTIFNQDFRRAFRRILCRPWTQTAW
- assay text: Competition binding, [3H]rauwolscine, human α2B receptor
- recorded conditions: pKi alpha-2 2b, [3H]rauwolscine, human α2B receptor, LM(tk−) cells
Where a name gives a salt, the structure may show the parent alone.
Entries and their Ki

molecule	Ki (µM)
CCC1=C(C(=O)NCCCN2CCC(c3ccccc3)(c3ccccc3)CC2)C(c2ccc([N+](=O)[O-])cc2)C(C(=O)NC)=C(COCCN=[N+]=[N-])N1 (stereo not drawn)	0.537
CCC1=C(C(N)=O)C(c2ccc([N+](=O)[O-])cc2)C(C(=O)NCCCN2CCC(C#N)(c3ccccc3)CC2)=C(CC)N1 (racemic) [(±)-102, hydrochloride hydrate]	1.02
CCC1=C(C(=O)OCCC#N)C(c2ccc([N+](=O)[O-])cc2)C(C(=O)NCCCN2CCC(c3ccccc3)(c3ccccc3)CC2)=C(COCCN=[N+]=[N-])N1 (stereo not drawn)	0.437

###

Overview of recorded Ki for various molecules
- assayed target: α2B receptor (Homo sapiens)
- Construct: host or cells: LM(tk-) cells, line L-NGC-α2B
- assay text: Competition binding, [3H]rauwolscine, human α2B receptor
- recorded conditions: [3H]rauwolscine, human α2B receptor, LM(tk−) cells; read-out: pKi alpha-2 2b (converted)
Counter-ions that a name gives are not always drawn.

molecule	Ki
COc1ccccc1N1CCN(CCCNC(=O)C2=C(C)NC(C)=C(C(N)=O)C2c2ccc([N+](=O)[O-])cc2)CC1 (stereo not drawn)	200 nM
CCC1=C(C(=O)OCCC#N)C(c2ccc([N+](=O)[O-])cc2)C(C(=O)NCCCN2CCC(c3ccccc3)(c3ccccc3)CC2)=C(COC)N1 (stereo not drawn)	389 nM
CC1=C(C(=O)NCCCN2CCC(c3ccccc3)(c3ccccc3)CC2)C(c2ccc([N+](=O)[O-])cc2)C(C(=O)OCCC#N)=C(C)N1 (stereo not drawn)	148 nM
CCC1=C(C(N)=O)C(c2ccc([N+](=O)[O-])cc2)C(C(=O)NCCCN2CCN(c3ccccc3OC)CC2)=C(CC)N1 (stereo not drawn)	186 nM
CCC1=C(C(N)=O)C(c2ccc([N+](=O)[O-])cc2)C(C(=O)NCCCN2CCC(c3ccccc3)CC2)=C(CC)N1 (stereo not drawn)	257 nM
CCC1=C(C(N)=O)C(c2ccc([N+](=O)[O-])cc2)C(C(=O)NCCCN2CCN(c3ccccc3)CC2)=C(CC)N1 (stereo not drawn) [Example 104, hydrochloride hydrate]	56.2 nM

All figures here come from patent US6608086B2.
